system: Fibroblast; assay: Multiplex assay against human fibroblast; type: toxicity, cell-based; conditions: 12 h, 1 µM, compound concentration 1 uM, replicate 2
OBSERVABLE: Population Tubulin-Different-Phenotype (%)

• C=CC(=O)Nc1cc(-n2c(=O)ccc3cnc4ccc(-c5ccc(NS(C)(=O)=O)cc5)cc4c32)ccc1C = 10
• C[C@@H](Oc1cc(-n2cnc3ccc(CN4CCN(C)CC4)cc32)sc1C(N)=O)c1ccccc1C(F)(F)F = 30
• CN1C(=O)[C@@H](NC(=O)c2cc3ccccc3[nH]2)N=C(c2ccccc2)c2ccccc21 [DEVAZEPIDE] = 10
• CCOc1ccn(-c2ccc(F)cc2)c(=O)c1C(=O)Nc1ccc(Oc2ccnc(N)c2Cl)c(F)c1 = 47
• CC(Cc1ccc(O)c(O)c1)C(C)Cc1ccc(O)c(O)c1 (configuration not stated) [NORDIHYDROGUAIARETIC ACID] = 25
• NC(=O)c1ccc2nc(-c3ccc(C4(N)CCC4)cc3)c(-c3ccccc3)n2n1 = 25
• Cl.Cn1c2c(c3ccc(Cl)c(Cl)c31)C(C#N)C1(CCNCC1)NC2=O (configuration not stated) = 9
